The reader will find reported Elimination of E. coli biofilm values listed item by item below.
- Test system: Escherichia coli biofilm
- measurementDescription: Activity against biofilm, E. coli
- Assay type: cell-based
- recordedConditions: 67-150 μM peptide, 3 hr treatment
attributeMeasured: Elimination of E. coli biofilm

[[record]]
substance = "H-GLDDLLKALLKAAGW-NH2 [Peptide 4H9]"
assaysystem = "Escherichia coli biofilm"
valueobserved = "~50%"

[[record]]
substance = "H-GLLDLPKALAKALGW-NH2 [Peptide 7G6]"
assaysystem = "Escherichia coli biofilm"
valueobserved = "~50%"

[[record]]
substance = "H-GLLDAAKLLAKAAGW-NH2 [Peptide 24F1]"
assaysystem = "Escherichia coli biofilm"
valueobserved = "~50%"

[[record]]
substance = "H-GLDDLAKLLLKLAGW-NH2 [Peptide 25B2]"
assaysystem = "Escherichia coli biofilm"
valueobserved = "~50%"

[[record]]
substance = "H-GLADLAKLLLKLLGW-NH2 [Peptide 7F3]"
assaysystem = "Escherichia coli biofilm"
valueobserved = "~50%"

[[record]]
substance = "H-GLADAAKLLLKAAGW-NH2 [Peptide 11D12]"
assaysystem = "Escherichia coli biofilm"
valueobserved = "~50%"

